- Test system: PXR homodimer (NR concentration 270 nM)
- method: PBM binding z-score (relative to random genomic background probes); higher = stronger binding; sequences stand for … in GC…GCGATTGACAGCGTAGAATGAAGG
Listed sequences paired with reported PBM binding z-score
measuredAttribute: PBM binding z-score

chainSequence: GGAACCAGGGCAAAGTTGATAGCATCTGTCGACG
measuredAttribute: PBM binding z-score
readoutValue: 0.639
--
chainSequence: GCTACTGGGGCAAAGCAGGTTACCATAAGGTTGG
measuredAttribute: PBM binding z-score
readoutValue: -0.456
--
chainSequence: CGTCCAAGGTCAAAGGTGAGTGAAGAGATGACGG
measuredAttribute: PBM binding z-score
readoutValue: 1.01
--
chainSequence: AGTCAAAGTTCAGGACGATGTAACGTAAAGCACG
measuredAttribute: PBM binding z-score
readoutValue: 1.24
--
chainSequence: CCTACTGGGCCATTCAGACGTCATTGATCATATG
measuredAttribute: PBM binding z-score
readoutValue: -0.506
--
chainSequence: CGAACTAGGTCATTCAGGACAGTGAATACATTGA
measuredAttribute: PBM binding z-score
readoutValue: 1.68
--
chainSequence: ACTACCAGGCCAAGTTTGGGTCACTCAAACAAAG
measuredAttribute: PBM binding z-score
readoutValue: 0.121
--
chainSequence: CAAACTAGGTCAAAGGCCAAAGTCGAGCCAACCA
measuredAttribute: PBM binding z-score
readoutValue: 0.159
--
chainSequence: GCTCGGAGGACATGGTCAGAGCTTTGTCCGTAGA
measuredAttribute: PBM binding z-score
readoutValue: -0.911
--
chainSequence: AGTCAAAGTTCATCTAGATAACGTAAGATATGCT
measuredAttribute: PBM binding z-score
readoutValue: 4.36
--
chainSequence: ACTATTAATTGAGACGAGGGCAACCGATAGGTTG
measuredAttribute: PBM binding z-score
readoutValue: 1.25
--
chainSequence: CCAGACAGGTGAAAGGTAACTCGGTCTGGTACGC
measuredAttribute: PBM binding z-score
readoutValue: -0.111
--
chainSequence: GCATATAGGTAATACAAGGTAAAAGTCCGATTGT
measuredAttribute: PBM binding z-score
readoutValue: -0.11
--
chainSequence: TCTTGTAGATCAAAGGGTAAGAAAGCCGAAGCCT
measuredAttribute: PBM binding z-score
readoutValue: -0.478
--
chainSequence: GCTAGTTGGTCAGTAAAAGGTCACTCACCGGTCG
measuredAttribute: PBM binding z-score
readoutValue: 0.779
--
chainSequence: ACTAGCAGGCGAAGGGTCACTCAAGATTAGTCCG
measuredAttribute: PBM binding z-score
readoutValue: -0.24
--
chainSequence: CCTCGGAGGACAAAAGGAGGTCAGAGCTGCCAGA
measuredAttribute: PBM binding z-score
readoutValue: 0.144

* * *

Listed sequences paired with reported PBM binding z-score
- Tested on: RARa:RXR (NR concentration 270 nM, RXRa partner concentration 90 nM)
- method: PBM binding z-score (relative to random genomic background probes); higher = stronger binding; sequences stand for … in GC…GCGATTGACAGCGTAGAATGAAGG
measuredAttribute: PBM binding z-score

chainSequence: ACTAGCAGGCCAAGTTTGGATCACTCAAACAAAG
readoutValue: -0.608
--
chainSequence: ATCGAAAGGTCGACGAGCTGAGTATACACCGTTT
readoutValue: 2.78
--
chainSequence: CCAGACAGGTGAAAGGAAACTCAGTCTGGTACGC
readoutValue: 0.0734
--
chainSequence: CGAACTAGGTCAGCACAGGACAGTGAAGGATGAT
readoutValue: 1.03
--
chainSequence: CCTAGTCGGTCAAGGTCACACACGCTATAGGTAC
readoutValue: 4.9
--
chainSequence: CAAACTAGGTCAAGGTCAAAGACGGTTTGTGCCA
readoutValue: 5
--
chainSequence: CATACTGGGCCAAAGGTCATTGATTCCAATGCTC
readoutValue: 6.32
--
chainSequence: TCTTTTAGATCAACAGGAGGTTAAGAAAGATCGA
readoutValue: 1.6
--
chainSequence: TCTATTAGTCGATTAGGGCAACCGAAACAGCGGA
readoutValue: 0.574
--
chainSequence: GGTAGCAGGCCATTTGGGTCACTCAATGACGGGC
readoutValue: 0.741
--
chainSequence: CAAACTAGGTCACCGGAAGGCCAAAGTCCGCATG
readoutValue: 3.4

* * *

Listed sequences paired with reported PBM binding z-score
- Tested on: PPARg homodimer (NR concentration 180 nM)
- method: PBM binding z-score (relative to random genomic background probes); higher = stronger binding; sequences stand for … in GC…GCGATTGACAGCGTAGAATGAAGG

chainSequence: ATCGATAGGTCGTGAGGTGAGTATACAGAAAGGC
targetOfAssay: PPARg homodimer (NR concentration 180 nM)
PBM binding z-score: 0.792
//
chainSequence: TCATATAGGTAATACAGCTGAAAGTCGGCATCTA
targetOfAssay: PPARg homodimer (NR concentration 180 nM)
PBM binding z-score: 1.1
//
chainSequence: TGAATGAGGTTATAAGATCGGGGAACGTTGCAAA
targetOfAssay: PPARg homodimer (NR concentration 180 nM)
PBM binding z-score: -0.104
//
chainSequence: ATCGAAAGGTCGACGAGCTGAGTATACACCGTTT
targetOfAssay: PPARg homodimer (NR concentration 180 nM)
PBM binding z-score: 0.589
//
chainSequence: GCTAGTTGGCCAGTAAAAGGTCACACACCGGTCG
targetOfAssay: PPARg homodimer (NR concentration 180 nM)
PBM binding z-score: 3.08
//
chainSequence: CTTAGCAGGCCAGGGTCACTCAAGCATTTCGCTT
targetOfAssay: PPARg homodimer (NR concentration 180 nM)
PBM binding z-score: 0.785
//
chainSequence: ACTACTTGGTCAGCTGAGGTCACACACAATTCGG
targetOfAssay: PPARg homodimer (NR concentration 180 nM)
PBM binding z-score: 4.02
//
chainSequence: CGTCCAAGGTCAAGGCCAGTGAAAGAGACTCGAA
targetOfAssay: PPARg homodimer (NR concentration 180 nM)
PBM binding z-score: 2.5
//
chainSequence: CGAACTAGGTCATGCAGGACAGTGAATACATTGA
targetOfAssay: PPARg homodimer (NR concentration 180 nM)
PBM binding z-score: 1.1
//
chainSequence: ATCTCTAGGTAGAGTTCAGTGAAAGATCGATAGA
targetOfAssay: PPARg homodimer (NR concentration 180 nM)
PBM binding z-score: 0.95
//
chainSequence: GCTTACGGGTCAAAGGTAATAGCATGAATAGAAT
targetOfAssay: PPARg homodimer (NR concentration 180 nM)
PBM binding z-score: 1.61
//
chainSequence: AGAACGAGGGCACGATGAGTTGATAGCAGAGTAG
targetOfAssay: PPARg homodimer (NR concentration 180 nM)
PBM binding z-score: 0.364
//
chainSequence: CGTCCAAGGTCAATGCTAGGTCAGTGAAAGCATT
targetOfAssay: PPARg homodimer (NR concentration 180 nM)
PBM binding z-score: 6.35
//
chainSequence: CAAACTAGGTCAAGAGGTCAAAGTACGCTTCCCG
targetOfAssay: PPARg homodimer (NR concentration 180 nM)
PBM binding z-score: 4.62
//
chainSequence: AATACAGGGTCAACGTAGGCCAGAGTACGCACAG
targetOfAssay: PPARg homodimer (NR concentration 180 nM)
PBM binding z-score: 2.78
//
chainSequence: AGAAGGAGGTTATACGTAGATCAGGGAAGAAAGT
targetOfAssay: PPARg homodimer (NR concentration 180 nM)
PBM binding z-score: 1.18

* * *

- Tested on: LXRb homodimer (NR concentration 270 nM)
- method: PBM binding z-score (relative to random genomic background probes); higher = stronger binding; sequences stand for … in GC…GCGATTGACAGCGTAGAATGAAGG

chainSequence: ATCTCTAGGTAAGACTCAGTTCAGTGTAGAACGC
PBM binding z-score: 0.886

chainSequence: CCTGCTAGGTCAATGGTCAGCGAAAGCAGCTCGC
PBM binding z-score: 0.134

chainSequence: GGAACGAGGGGAAGTTGATAGCAGAGTTTGATGG
PBM binding z-score: -0.185

chainSequence: CACGAAAGGTCGTGCTCAGGTGAGTATACCAAAC
PBM binding z-score: 0.848

chainSequence: ATATGTAGGCTATCGGGTCATTCAGTTTGCGCAT
PBM binding z-score: 0.313

chainSequence: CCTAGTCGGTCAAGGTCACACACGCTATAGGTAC
PBM binding z-score: 1.16

* * *

Listed sequences paired with reported PBM binding z-score
- Tested on: PPARg:RXRa 90nM:30nM, anti-RXR (NR concentration 90 nM, RXRa partner concentration 30 nM)
- method: PBM binding z-score (relative to random genomic background probes); higher = stronger binding; sequences stand for … in GC…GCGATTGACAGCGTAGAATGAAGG
measuredAttribute: PBM binding z-score

chainSequence: TCTTGTAGATCAAGCAGGTAAAGAAAGCCTGAGT
measuredAttribute: PBM binding z-score
readoutValue: 1.62
//
chainSequence: CCTCGGAGGACAGATGGTCAGAGCTGTCCGCTTT
measuredAttribute: PBM binding z-score
readoutValue: -0.907
//
chainSequence: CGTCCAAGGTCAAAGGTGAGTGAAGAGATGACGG
measuredAttribute: PBM binding z-score
readoutValue: 7.38
//
chainSequence: GCTTGTAGATCAACGTTAAGAAAGACTAAGCTAA
measuredAttribute: PBM binding z-score
readoutValue: -0.214
//
chainSequence: AGTCAATGTTCATCTAGGTAACGTAAGATATGCT
measuredAttribute: PBM binding z-score
readoutValue: -0.00272
//
chainSequence: AATACAGGGTCATCGTAGGCCGGAGTACGCACAG
measuredAttribute: PBM binding z-score
readoutValue: 4.59
//
chainSequence: ACAGACAGGTGAGTGAAGGTAACTCACCTGGACG
measuredAttribute: PBM binding z-score
readoutValue: -0.144
//
chainSequence: TAGCCTAGATCATGCGGGCCAGTATAGTGTCGGC
measuredAttribute: PBM binding z-score
readoutValue: -0.742
//
chainSequence: CCTTACGGGTCACCCCAGGTTATAGCATCGGAGT
measuredAttribute: PBM binding z-score
readoutValue: 3.1
//
chainSequence: TAGACTAGGTCATTGGGCCAGTATAGTACGCATC
measuredAttribute: PBM binding z-score
readoutValue: 4.58
//
chainSequence: CAATCTAGGTCACCGGAAGGTCAAAGTCCGCATG
measuredAttribute: PBM binding z-score
readoutValue: 8.12
//
chainSequence: TCGAGTAGGTTCGGGGCATTCAGAATGGCGTCGA
measuredAttribute: PBM binding z-score
readoutValue: 0.234
//
chainSequence: ATCTCTTGGTAAAAGTTCAGTGAATCCCGAGGAT
measuredAttribute: PBM binding z-score
readoutValue: 3.88
//
chainSequence: CCAGACAGGTGAAAGGTAGCTCAGTCTGGTACGC
measuredAttribute: PBM binding z-score
readoutValue: 4.9
//
chainSequence: CAAACAAGGTCAAGGTCAAAGTCGGTTTGTGCCA
measuredAttribute: PBM binding z-score
readoutValue: 6.55
//
chainSequence: AATACAGGGTCACTAGGCCAGGGTAGGTACGAAT
measuredAttribute: PBM binding z-score
readoutValue: 5.35
//
chainSequence: CCTAGCAGGCTAGGGTCACTCAAGCATTTCGCTT
measuredAttribute: PBM binding z-score
readoutValue: 0.841
